Data origin, for the record: patent US9303033B2

Catalogue of IC50 readings, one per entry.
- tested_system: recombinant human PIM2 (Homo sapiens (Human), UniProt Q9P1W9)
- Sequence (Q9P1W9 whole entry): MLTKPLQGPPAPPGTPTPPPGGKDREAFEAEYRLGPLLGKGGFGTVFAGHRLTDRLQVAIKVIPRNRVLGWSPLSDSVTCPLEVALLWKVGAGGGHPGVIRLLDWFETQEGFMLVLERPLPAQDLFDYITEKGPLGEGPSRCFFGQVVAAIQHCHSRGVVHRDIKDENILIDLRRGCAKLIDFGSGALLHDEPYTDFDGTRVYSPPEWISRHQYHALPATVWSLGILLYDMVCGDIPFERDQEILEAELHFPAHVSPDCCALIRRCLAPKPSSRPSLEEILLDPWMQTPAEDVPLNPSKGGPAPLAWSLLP
- experiment_notes: PIM-2 assay (33P-ATP filter binding)
- Format: biochemical
- stated_conditions: PIM2: IC50 (5 μM ATP), 5 μM ATP
measured_attribute: IC50

molecule: COC(=O)N1CCC(Nc2cc(Nc3cccc(Cl)c3)nc3c(/C=C4\NC(=O)NC4=O)cnn23)CC1 [Example T5]
result: > 2500 nM
//
molecule: CN(C)C(=O)N1CCC(Nc2cc(Nc3cccc(Cl)c3)nc3c(/C=C4\NC(=O)NC4=O)cnn23)CC1 [Example N5]
result: > 2500 nM
//
molecule: O=C1NC(=O)/C(=C/c2cnn3c(NC4CC4)cc(-c4ccc(F)c(C(=O)N5CCOCC5)c4)nc23)N1 [Example F5]
result: > 2500 nM
//
molecule: N#Cc1cccc(-c2cc(NC3CC3)n3ncc(/C=C4\NC(=O)NC4=O)c3n2)c1 [Example D4]
result: > 2500 nM
//
molecule: O=C1NC(=O)/C(=C/c2cnn3c(NC4CC4)cc(-c4cccc(CN5CCOCC5)c4)nc23)N1 [Example M4]
result: 1250 nM
//
molecule: CC(O)CN1CCC(Nc2cc(Nc3cccc(Cl)c3)nc3c(/C=C4\NC(=O)NC4=O)cnn23)CC1 (stereo not shown) [Example U5]
result: > 2500 nM
//
molecule: CC(C)(C)OC(=O)N1CCCC1CNc1cc(Nc2cccc(Cl)c2)nc2c(/C=C3\NC(=O)NC3=O)cnn12 (stereo not shown) [Example N6]
result: > 2500 nM
//
molecule: CCN1CCCC1CNc1cc(NC2CC2)n2ncc(/C=C3\SC(=O)NC3=O)c2n1 (stereo not shown) [Example G3]
result: 1850 nM
//
molecule: O=C1NC(=O)/C(=C/c2cnn3c([S+]([O-])Cc4ccccc4)cc(Nc4cccc(Cl)c4)nc23)N1 (stereo not shown) [Example Z5]
result: 297 nM
//
molecule: CCS(=O)(=O)Nc1cccc(-c2cc(NC3CC3)n3ncc(/C=C4\NC(=O)NC4=O)c3n2)c1 [Example X4]
result: 1730 nM
//
molecule: COc1cccc(-c2cc(NC3CC3)n3ncc(/C=C4\SC(=O)NC4=O)c3n2)c1 [Example H5]
result: 815 nM
//
molecule: O=C1NC(=O)/C(=C/c2cnn3c(NC4CC4)cc(NN4CCOCC4)nc23)N1 [Example S2]
result: 1300 nM
//
molecule: O=C1NC(=O)/C(=C/c2cnn3c(NC4CC4)cc(Nc4cc(Cl)ccc4F)nc23)N1 [Example Q1]
result: > 2500 nM
//
molecule: O=C1NC(=O)/C(=C/c2cnn3c(NC4CC4)cc(-c4cccc(OCCN5CCOCC5)c4)nc23)N1 [Example A4]
result: > 2500 nM
//
molecule: O=C1NC(=O)/C(=C/c2cnn3c(NCC4CC4)cc(Nc4cc(F)cc(F)c4)nc23)N1 [Example J2]
result: > 2500 nM
//
molecule: O=C1NC(=O)/C(=C/c2cnn3c(NC4CCC4)cc(Nc4cccc(Cl)c4)nc23)N1 [Example G6]
result: > 2500 nM

---

- tested_system: recombinant human PIM2 (Homo sapiens (Human), UniProt Q9P1W9)
- experiment_notes: PIM-2 assay (33P-ATP filter binding)
- Assay type: biochemical
- stated_conditions: PIM2: IC50 (5 μM ATP), 5 μM ATP

compound: O=C1NC(=O)/C(=C/c2cnn3c(SCc4ccccc4)cc(Nc4cccc(Cl)c4)nc23)N1
readout_relation: =
IC50 (nM): 2240

compound: O=C1NC(=O)/C(=C/c2cnn3c(NC4CC4)cc(NC4CCNCC4)nc23)N1
readout_relation: =
IC50 (nM): 877

compound: O=C1NC(=O)/C(=C/c2cnn3c(NC4CC4)cc(-c4cccc(C(F)(F)F)c4)nc23)N1
readout_relation: >
IC50 (nM): 2500

compound: CN(c1cccc(-c2cc(NC3CC3)n3ncc(/C=C4\NC(=O)NC4=O)c3n2)c1)S(C)(=O)=O
readout_relation: >
IC50 (nM): 2500

compound: O=C1NC(=O)/C(=C/c2cnn3c(NC4CCN(C(=O)C5CC5)CC4)cc(Nc4cccc(Cl)c4)nc23)N1
readout_relation: >
IC50 (nM): 2500

compound: O=C1NC(=O)/C(=C/c2cnn3c(NC4CC4)cc(-c4cccc(F)c4)nc23)N1
readout_relation: =
IC50 (nM): 867

compound: O=C1NC(=O)/C(=C/c2cnn3c(NC4CC4)cc(-c4cccc(CO)c4)nc23)N1
readout_relation: =
IC50 (nM): 649

compound: O=C1NC(=O)/C(=C/c2cnn3c(NC4CC4)cc(-c4ccc(F)c(C(=O)NCCN5CCCC5)c4)nc23)N1
readout_relation: >
IC50 (nM): 2500

compound: O=C1NC(=O)/C(=C/c2cnn3c(NC4CC4)cc(-c4cccc(OCCCO)c4)nc23)N1
readout_relation: =
IC50 (nM): 2170

compound: O=C1NC(=O)/C(=C/c2cnn3c(NC4CC4)cc(Nc4ccc(-n5cccn5)cc4)nc23)N1
readout_relation: >
IC50 (nM): 2500

compound: O=C1NC(=O)/C(=C/c2cnn3c(NC4CC4)cc(-c4ccc(O)cc4)nc23)N1
readout_relation: =
IC50 (nM): 1470

compound: CN(C)c1ccc(-c2cc(NC3CC3)n3ncc(/C=C4\NC(=O)NC4=O)c3n2)cn1
readout_relation: =
IC50 (nM): 75.4

compound: O=C1NC(=O)/C(=C/c2cnn3c(NC4CC4)cc(Nc4cc(F)cc(F)c4)nc23)N1
readout_relation: =
IC50 (nM): 1970

compound: COC(=O)c1cccc(-c2cc(NC3CC3)n3ncc(/C=C4\NC(=O)NC4=O)c3n2)c1
readout_relation: >
IC50 (nM): 2500

compound: O=C1NC(=O)/C(=C/c2cnn3c(NC4CC4)cc(Nc4cccc(C(F)(F)F)c4)nc23)N1
readout_relation: =
IC50 (nM): 2480

compound: CC(O)CNc1cc(NC2CC2)n2ncc(/C=C3\SC(=O)NC3=O)c2n1 (stereo not shown)
readout_relation: >
IC50 (nM): 2500

---

- Tested on: BxPC3 human pancreatic adenocarcinoma cells
- experiment_notes: Cell proliferation assay with Alamar Blue (AB), BxPC3
- Format: cell-based
- stated_conditions: Homo sapiens, BXPC-3, read-out: AB: BxPC3
measured_attribute: IC50

compound: O=C1NC(=O)/C(=C/c2cnn3c(Nc4cccc(C(=O)O)c4)cc(Nc4cccc(Cl)c4)nc23)N1
result: > 30 µM
//
compound: CC(=O)NC1CCC(Nc2cc(NC3CC3)n3ncc(/C=C4\NC(=O)NC4=O)c3n2)CC1 (stereo not drawn)
result: > 30 µM
//
compound: O=C1NC(=O)/C(=C/c2cnn3c(NC4CC4)cc(-c4cccc(F)c4)nc23)N1
result: > 30 µM
//
compound: C[C@H](Nc1cc(NC2CC2)n2ncc(/C=C3\NC(=O)NC3=O)c2n1)C1CC1
result: > 30 µM
//
compound: CC(=O)c1cccc(-c2cc(NC3CC3)n3ncc(/C=C4\NC(=O)NC4=O)c3n2)c1
result: > 30 µM
//
compound: O=C1NC(=O)/C(=C/c2cnn3c(NC4CCCC4)cc(Nc4cccc(Cl)c4)nc23)N1
result: > 30 µM

---

- tested_system: CK2 ααββ (Homo sapiens (Human))
- Sequence (P68400 whole entry): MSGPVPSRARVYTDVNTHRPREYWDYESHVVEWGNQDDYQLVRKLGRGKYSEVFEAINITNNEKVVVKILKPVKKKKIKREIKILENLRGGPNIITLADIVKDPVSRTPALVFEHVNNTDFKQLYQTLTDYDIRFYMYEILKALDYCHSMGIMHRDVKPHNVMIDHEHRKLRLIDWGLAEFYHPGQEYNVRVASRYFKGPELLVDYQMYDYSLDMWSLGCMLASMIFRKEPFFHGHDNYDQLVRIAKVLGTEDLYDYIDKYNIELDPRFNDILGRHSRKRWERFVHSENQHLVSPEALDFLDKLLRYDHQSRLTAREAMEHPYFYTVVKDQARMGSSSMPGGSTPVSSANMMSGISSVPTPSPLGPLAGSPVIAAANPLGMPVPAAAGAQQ
- Sequence (P67870 whole entry partner): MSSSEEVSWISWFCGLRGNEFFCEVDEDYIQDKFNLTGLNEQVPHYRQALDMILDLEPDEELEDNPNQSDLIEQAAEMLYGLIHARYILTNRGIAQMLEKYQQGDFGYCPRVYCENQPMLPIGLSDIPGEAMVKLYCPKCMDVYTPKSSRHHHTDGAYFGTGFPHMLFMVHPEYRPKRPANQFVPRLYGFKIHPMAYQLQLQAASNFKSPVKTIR
pIC50: −log10 of the molar value.
measured_attribute: pIC50

compound: O=C1NC(=O)/C(=C/c2cnn3c(NC4CC4)cc(NCC4CC4)nc23)N1
measured_attribute: pIC50
result: > 8.00

compound: CC1CN(C(C)c2cccc(Nc3cc(NC4CC4)n4ncc(/C=C5\NC(=O)NC5=O)c4n3)c2)CC(C)O1 (stereo not drawn)
measured_attribute: pIC50
result: > 8.00

compound: O=C1NC(=O)/C(=C/c2cnn3c(NCC4CC4)cc(NN4CCOCC4)nc23)N1
measured_attribute: pIC50
result: > 8.00

compound: CC(O)CNc1cc(Nc2cccc(Cl)c2)nc2c(/C=C3\NC(=O)NC3=O)cnn12 (stereo not drawn)
measured_attribute: pIC50
result: > 6.00

compound: NCc1cccc(Nc2cc(NCC3CC3)n3ncc(/C=C4\NC(=O)NC4=O)c3n2)c1
measured_attribute: pIC50
result: > 7.00

compound: CS(=O)(=O)Nc1cccc(-c2cc(NC3CC3)n3ncc(/C=C4\NC(=O)NC4=O)c3n2)c1
measured_attribute: pIC50
result: > 7.00

compound: CN1C(=O)NC(=Cc2cnn3c(NC4CC4)cc(Nc4ccc(C#N)c(Cl)c4)nc23)C1=O
measured_attribute: pIC50
result: > 7.00

compound: Nc1cc(Nc2cccc(Cl)c2)nc2c(/C=C3\NC(=O)NC3=O)cnn12
measured_attribute: pIC50
result: > 7.00

compound: CCN1CCC(Nc2cc(Nc3cccc(Cl)c3)nc3c(/C=C4\NC(=O)NC4=O)cnn23)CC1
measured_attribute: pIC50
result: > 6.00

compound: COC(=O)c1cccc(-c2cc(NC3CC3)n3ncc(/C=C4\NC(=O)NC4=O)c3n2)c1
measured_attribute: pIC50
result: > 8.00

compound: O=C1NC(=O)/C(=C/c2cnn3c(Nc4cccc(C(=O)N5CCNCC5)c4)cc(Nc4cccc(Cl)c4)nc23)N1
measured_attribute: pIC50
result: > 8.00

compound: C[C@H](Nc1cc(NC2CC2)n2ncc(/C=C3\NC(=O)NC3=O)c2n1)C1CC1
measured_attribute: pIC50
result: > 8.00

compound: O=C1NC(=O)/C(=C/c2cnn3c(NC4CC4)cc(N4CC[C@@H](F)C4)nc23)N1 [Example P2]
measured_attribute: pIC50
result: > 8.00

compound: O=C1NC(=O)/C(=C/c2cnn3c(NC4CC4)cc(-c4ccnc(F)c4)nc23)S1
measured_attribute: pIC50
result: > 6.00

compound: O=C1NC(=O)/C(=C/c2cnn3c(NC4CCN(CCO)CC4)cc(Nc4cccc(Cl)c4)nc23)N1
measured_attribute: pIC50
result: > 7.00

compound: Cc1c(Nc2cccc(Cl)c2)nc2c(C=C3NC(=O)NC3=O)cnn2c1NC1CC1
measured_attribute: pIC50
result: > 8.00

compound: CS(=O)(=O)c1cccc(-c2cc(NC3CC3)n3ncc(/C=C4\NC(=O)NC4=O)c3n2)c1
measured_attribute: pIC50
result: > 8.00

compound: O=C1NC(=O)C(=Cc2cnn3c(NC4CC4)cc(-c4csc(CN5CCCC5)c4)nc23)N1
measured_attribute: pIC50
result: > 8.00

compound: Cc1ccc(Nc2cc(NCC3CC3)n3ncc(/C=C4\NC(=O)NC4=O)c3n2)nc1
measured_attribute: pIC50
result: > 7.00

compound: CCN(CC)c1cc(NC2CC2)n2ncc(/C=C3\SC(=O)NC3=O)c2n1
measured_attribute: pIC50
result: > 6.00

compound: O=C1NC(=O)/C(=C/c2cnn3c(NC4CC4)cc(Nc4cccc(OC(F)(F)F)c4)nc23)N1 [Example E1]
measured_attribute: pIC50
result: > 8.00
